Consider the following sequences; for each one, report its apparent KD of MS2 coat protein.
system: MS2 coat protein; assay: apparent KD of MS2 coat protein; designed switch direction (-1 OFF switch, 1 ON switch): -1; higher = weaker reporter binding; conditions: input ligand: microRNA oligo, concentration not stated

Prompt: Name the recorded apparent KD of MS2 coat protein for CAUUAUUAUCGAGGAUAUCCUAUUGAAAUUCUGGGAGAAGGCGGACUCAACAUGAGGAUCACCCAUGUGGGACGGAUGCUAGGC [salish99_exng1_r04_601] (Eterna round: R96, puzzle: Exclusion NG 1) .
Response: 15.6 nM

Prompt: For the sequence shown here, AAGAAGUCAGGAUAUACAUGAGGAUCACCCAUGUAAAAGAAAGAAAAGGGAAAGAAAAGUAGAAGGGACAAGAA [Menkheperre Thutmose III] (Eterna round: R96, puzzle: Exclusion 3) , give the reported apparent KD of MS2 coat protein.
Response: 21.8 nM

Prompt: // query apparent KD of MS2 coat protein value for entry ACAUGAGGAUCACCCAUGUACACGUAAUGGCUCAUGUAGAGUGAGGAUAUGUGUGACGAACGAGCACAGAAGGCACAAGACUGG [Deportation 12 - Jieux - Exclusion NG 3] (Eterna round: R96, puzzle: Exclusion NG 3)
Response: 39.8 nM

Prompt: Can you look up the measured apparent KD of MS2 coat protein of UAGCAUUGCCUUUGGUAGUGCUAUACAUGAGGAUCACCCAUGUAGGAUAUGGUCGGCUUUGCUGACCAGAAGGACAUGUGUAUU [MOD2 ENG3 1.04 by JL] (Eterna round: R96, puzzle: Exclusion NG 3) for me?
Response: 91.5 nM

Prompt: Looking for the measured apparent KD of MS2 coat protein of UUGUUAUAUGUAGGAUAUGCAUAUUGUUGUUAUGCAGAAGGACAUGAGGAUCACCCAUGUAUAUUAUUGUUAUAUAUUGUAUAU [Title] (Eterna round: R96, puzzle: Exclusion NG 1) , can you help?
Response: 20.1 nM

Prompt: Given the entry GCAGCAACUCUAAUUAAAACCACAUGAGGAUCACCCAUGUCUCAGGAUAUGGUCUGGAUUACAGGCCAGAAGGGAGAAAGCUGC [Eli exng3 - 051] (Eterna round: R96, puzzle: Exclusion NG 3) , report its measured apparent KD of MS2 coat protein.
Response: 14.9 nM

Prompt: May I ask what apparent KD of MS2 coat protein has been recorded for UUUAUAAUAAGAUCAAUUAAUUAACAUGAGGAUCACCCAUGUGAGGAUAUCAGCUCGUGUAGAGCUGAGAAGGCACAAUAUAAG [ExNG3/17-B3] (Eterna round: R96, puzzle: Exclusion NG 3) ?
Response: 36.2 nM

Prompt: Sample UACCUAUAGGUAGGAUAUCAUUGCGAUUAGCUAUGAGAAGGACCACAUGAGGAUCACCCAUGUCCUCCAAUUAACCGAAAGGUA [Fiskers ExNg1 - 2] (Eterna round: R96, puzzle: Exclusion NG 1) — what was its apparent KD of MS2 coat protein?
Response: 39.7 nM

Prompt: Quick one: apparent KD of MS2 coat protein of GUCAGCUCGUCAGGAUAUGAACAUGAGGAUCACCCAUGUAAGAUCAAGCUGCUUCGGCAGCAAGUUCAGAAGGGACGAGCUGAU [ENG2/10-B2] (Eterna round: R96, puzzle: Exclusion NG 2) ?
Response: 136 nM
